- Test system: LXF-289
- TEST DETAILS: relative viability (nuclei count vs DMSO), 5 days (fraction); higher = more cells survive
- CONDITION INFO: first compound 8 µM
Listed here are molecules together with their documented relative viability.

{"columns": ["MOLECULE", "relative viability"],
 "data": [
  ["Nc1cccc2c1CN(C1CCC(=O)NC1=O)C2=O (stereo not given) [Lenalidomide] + C[C@]1(O)C[C@@H](c2nc(-c3ccc4ccc(-c5ccccc5)nc4c3)c3c(N)nccn32)C1 [Linsitinib] (partner 1 µM)", 1.03],
  ["Nc1cccc2c1CN(C1CCC(=O)NC1=O)C2=O (stereo not given) [Lenalidomide] + CC(=O)Nc1cccc(-n2c(=O)n(C3CC3)c(=O)c3c(Nc4ccc(I)cc4F)n(C)c(=O)c(C)c32)c1 [Trametinib] (partner 0.02 µM)", 0.691],
  ["Nc1cccc2c1CN(C1CCC(=O)NC1=O)C2=O (stereo not given) [Lenalidomide] + Cc1nc(Nc2ncc(C(=O)Nc3c(C)cccc3Cl)s2)cc(N2CCN(CCO)CC2)n1 [Dasatinib] (partner 0.075 µM)", 0.213],
  ["Nc1cccc2c1CN(C1CCC(=O)NC1=O)C2=O (stereo not given) [Lenalidomide] + Cc1nc(NC(=O)N2CCC[C@H]2C(N)=O)sc1-c1ccnc(C(C)(C)C(F)(F)F)c1 [Alpelisib] (partner 2 µM)", 1.08],
  ["Nc1cccc2c1CN(C1CCC(=O)NC1=O)C2=O (stereo not given) [Lenalidomide] + O=C(CCCCCCC(=O)Nc1ccccc1)NO [Vorinostat] (partner 1 µM)", 0.838]
]}
